Molecular target: HIF-2α HIS TAG-PASB Domain (Homo sapiens, UniProt Q99814)
Construct: 100 nM HIF-2α HIS TAG-PASB Domain
Sequence (Q99814 240-350 limits assumed): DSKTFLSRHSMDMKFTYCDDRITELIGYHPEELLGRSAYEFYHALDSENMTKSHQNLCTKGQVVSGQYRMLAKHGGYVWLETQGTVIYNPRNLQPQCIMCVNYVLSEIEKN
Assay: HIF-2α Scintillation Proximity Assay (SPA)
Format: binding
Settings: read-out: Scintillation Proximity Assay IC50
pIC50: −log10 of the molar value.
pIC50 reference

Example entries and their recorded answers appear below.
molecule | result
CS(=O)(=O)c1ccc(OC[C@@H]2C[C@@H]2C#N)c2c1[C@H](O)C(F)(F)[C@@H]2F | < 6.00
O=S(=O)(c1ccc(Oc2cc(F)cc(Cl)c2)c(Cl)c1CNC1CCCOC1)C(F)F (centres unmarked) | < 6.00
CS(=N)(=O)c1ccc(Oc2cc(F)cc(F)c2)c2c1C(O)C(F)(F)C2 (centres unmarked) | 6.60 to 7.30
COc1c(Oc2cc(F)cc(C#N)c2)ccc2c1C(O)C(F)(F)S2(=O)=O (centres unmarked) | 6.00 to 6.60
O=S(=O)(CF)c1ccc(O[C@H]2C[C@H](F)C2)c2c1[C@H](O)[C@H](F)[C@@H]2F | > 7.30
O=S1(=O)c2ccc(Oc3cncc(Cl)c3)c(Cl)c2[C@@H](O)C1(F)F | 6.00 to 6.60
O=S(=O)(c1ccc(OCc2ccccc2)c2c1[C@H](O)C(F)(F)C2)C(F)F | < 6.00

Turning now to a further molecule:
Give recorded pIC50 with HIF-2α HIS TAG-PASB Domain (Homo sapiens, UniProt Q99814) for the following molecule: CS(=O)(=O)c1ccc(Oc2cc(F)cc(C#N)c2)c2c1[C@H](O)C[C@@H]2F
6.60 to 7.30
